Values compiled from patent US20230242620A1.

- target desc: serum sample IHUS#B09032311A1
- experimental details: ECL drug displacement assay, variant as competitor against labelled SEQ ID NO:1
Answer each item with its documented ECLU confirmatory assay.
Answers are plain numbers, in ECLU.

Hi there! I need ECLU confirmatory assay for each item below, if you can.
1. Example 1C: wildtype (VHH) VHH: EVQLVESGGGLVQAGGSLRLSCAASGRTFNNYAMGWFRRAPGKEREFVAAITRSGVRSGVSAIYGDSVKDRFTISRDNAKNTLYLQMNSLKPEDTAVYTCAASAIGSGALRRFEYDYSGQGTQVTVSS
2. Example 1C: (A14P, R39Q, K83R, T91Y, Q108L)-3A (VHH) VHH: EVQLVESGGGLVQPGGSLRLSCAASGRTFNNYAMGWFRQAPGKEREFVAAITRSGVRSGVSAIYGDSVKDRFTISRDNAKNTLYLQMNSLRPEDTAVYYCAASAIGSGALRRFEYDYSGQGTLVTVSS
3. Example 1c: (A14P, R39Q, K83R,T91Y, Q108L) (VHH) VHH: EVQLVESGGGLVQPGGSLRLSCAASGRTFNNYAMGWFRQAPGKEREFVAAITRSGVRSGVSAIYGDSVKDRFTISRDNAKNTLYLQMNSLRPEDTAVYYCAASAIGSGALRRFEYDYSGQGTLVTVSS
4. Example 1C: (A14P) (VHH) VHH: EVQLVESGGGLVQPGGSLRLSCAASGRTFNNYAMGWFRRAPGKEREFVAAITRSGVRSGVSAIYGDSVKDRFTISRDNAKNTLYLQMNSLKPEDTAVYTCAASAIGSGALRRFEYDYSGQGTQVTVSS
5. Example 1C: (K83R) (VHH) VHH: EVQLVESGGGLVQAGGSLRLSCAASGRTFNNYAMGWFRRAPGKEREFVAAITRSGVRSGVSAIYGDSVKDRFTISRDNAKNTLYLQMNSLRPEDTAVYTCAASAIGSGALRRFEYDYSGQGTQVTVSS

1. 60
2. 62
3. 58
4. 56
5. 62

Hi there! I need ECLU confirmatory assay for each item below, if you can.
1. Example 1C: (A14P, K83R, Q108L) (VHH) VHH: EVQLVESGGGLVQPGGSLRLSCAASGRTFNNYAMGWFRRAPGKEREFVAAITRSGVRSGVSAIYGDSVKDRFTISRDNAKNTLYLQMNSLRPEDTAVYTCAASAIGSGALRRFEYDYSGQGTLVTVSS
2. Example 1C: (Q108L) (VHH) VHH: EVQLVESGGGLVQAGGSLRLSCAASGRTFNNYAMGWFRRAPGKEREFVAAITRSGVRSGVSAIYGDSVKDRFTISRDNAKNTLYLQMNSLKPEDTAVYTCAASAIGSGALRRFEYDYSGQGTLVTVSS
3. Example 1C: (A14P, R39Q, K83R, T91Y, Q108L)-QA (VHH) VHH: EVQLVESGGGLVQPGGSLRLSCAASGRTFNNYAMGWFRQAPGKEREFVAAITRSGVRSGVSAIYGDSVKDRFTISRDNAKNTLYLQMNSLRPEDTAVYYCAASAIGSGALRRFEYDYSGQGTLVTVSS

57
59
60
